Data origin: paper PMC7566600

Target: WT Af1521 macro domain (Archaeoglobus fulgidus)
Sequence (O28751 1-192): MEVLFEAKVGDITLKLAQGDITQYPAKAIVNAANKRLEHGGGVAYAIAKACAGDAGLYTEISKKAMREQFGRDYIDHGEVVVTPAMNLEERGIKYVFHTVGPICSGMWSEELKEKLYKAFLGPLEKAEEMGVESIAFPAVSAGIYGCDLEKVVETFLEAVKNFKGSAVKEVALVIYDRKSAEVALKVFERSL
readout: pKd
One number for each entry, as −log10 of the molar value.

Asked: # input compound: `Nc1ncnc2c1ncn2[C@@H]1O[C@H](COP(=O)(O)OP(=O)(O)OC[C@H]2O[C@H](O)[C@H](O)[C@@H]2O)[C@@H](O)[C@H]1O` ; wanted: its pKd
Given back: 5.54
